The measured values listed here are drawn from ChEMBL document CHEMBL1629693.

Assay: Ratio of cellular uptake in alveolar macrophages to plasma of healthy human
Assay Endpoint: Kp

Problem: Report Kp for CCC(C)n1ncn(-c2ccc(N3CCN(c4ccc(OCC5COC(Cn6cncn6)(c6ccc(Cl)cc6Cl)O5)cc4)CC3)cc2)c1=O (stereo unspecified) please.
Solution: 27.3
